tested on: T-47D breast; assay: NCI tumour cell line growth inhibition, 48 h; in the data active means GI50 below about 0.43 µM; inactive means the rest
Labels: true (1) = active, false (0) = inactive

| smiles | class |
| --- | --- |
| COc1ccc2oc(=O)cc(C(c3ccc[nH]3)c3ccc[nH]3)c2c1 | true (1) |
| Cc1cccc(NC(=O)CCc2ccc(N3C(N)=NC(N)=NC3(C)C)cc2)c1 | false (0) |
| FC(F)(F)Oc1cccc(-c2cnc3ccc(-c4ccncc4)nn23)c1 | false (0) |
| CCCCC[C@H](O)/C=C/[C@@H]1[C@@H](C/C=C\CCCC(=O)O)[C@@H](O)C[C@H]1O | false (0) |
| C=C1C(=O)O[C@H]2[C@H]1CC/C(CNC(=O)Cc1c[nH]c3ccccc13)=C\CC[C@@]1(C)O[C@@H]21 | false (0) |

###

Reported values of TGI for individual entries
system: T-47D breast; test: NCI tumour cell line growth inhibition, 48 h

| compound | boundSign | TGI (µM) |
| --- | --- | --- |
| O=c1cc(NCCCCCO)[nH]c(=O)[nH]1 | > | 100 |
| C=C(C)C(=O)O[C@H]1C/C(CO)=C/CCC(=C)C(OC(C)=O)[C@H]2OC(=O)C(=C)[C@H]12 (stereo partly specified) | = | 28 |
| COc1cc(-c2cn(S(=O)(=O)c3ccc(C)cc3)c3ccccc23)nc(-c2cn(S(=O)(=O)c3ccc(C)cc3)c3ccccc23)n1 | > | 100 |
| O=C1c2ccccc2-c2c1c1ccccc1c(=O)n2CCCCNCCCn1c2c(c3ccccc3c1=O)C(=O)c1ccccc1-2 | = | 4.86 |
| NC(Cc1ccc(S(=O)(=O)O)cc1)C(=O)NC(CCCCNC(=O)NCCCCC(NC(=O)C(N)Cc1ccc(S(=O)(=O)O)cc1)C(=O)NC(Cc1ccc(S(=O)(=O)O)cc1)C(=O)O)C(=O)NC(Cc1ccc(S(=O)(=O)O)cc1)C(=O)O (stereo unspecified) | > | 100 |
| COc1ccc(/C=C2\CCC(C)C3=C(c4ccc(OC)c(OC)c4)C(C#N)=C(N)OC32)cc1OC (stereo unspecified) | = | 7.97 |

###

system: OVCAR-3 ovarian; assay: NCI tumour cell line growth inhibition, 48 h
Structures can show the parent of a compound that is named as a salt. Where a SMILES comes first, the peptide text is derived from it. The star is where a group is joined. Tfa = O=C(C(F)(F)F)*
Label scheme, based on TGI: class 0 (below 5 µM), class 1 (5 µM to below 30 µM), class 2 (30 µM or more)

| compound | class |
| --- | --- |
| CC(C)(C)OC1=C(OC(C)(C)C)C(O)(c2ccccc2)C1=O (stereo not drawn) | class 2 |
| CC(=O)OC1C(C)OC(Oc2c(C)c3c4c(c2O)[C@@H](C)CC[C@@H]4[C@@H](C)C[C@H]3C=C(C)C)C(O)C1O (stereo partly drawn) | class 0 |
| CN1N=CSC12C(=O)N(c1ccc(Cl)cc1)C(=O)N2c1ccc(Cl)cc1 (stereo not drawn) | class 0 |
| COc1cc(C=O)ccc1Oc1nnnn1-c1ccccc1 | class 2 |
| O=C(/C=C1\N=C(c2ccccc2)N(c2nc3ccc(Sc4ccccc4)cc3[nH]2)C1=O)/C=C/c1ccccc1 | class 2 |
| CC1(C)CC(=O)C(CCC(=O)/C=C/c2ccccc2)C(=O)C1 | class 2 |
| CCS(=O)(=O)N1CCC(C(C)n2c(C)c(C(=O)NCc3c(OC)cc(C)[nH]c3=O)c3ccccc32)CC1 (stereo not drawn) | class 2 |
| COc1cc2c(cc1O)CC[C@@H]1[C@@H]2CC[C@]2(C)[C@@H](NCCN(C)C)CC[C@@H]12 | class 0 |
| FC(F)(F)c1nc(N2CCCC2)ncc1-c1nnnn1-c1ccc(Cl)cc1 | class 2 |
| CCOc1ccc2nc(-c3ccc(O)cc3)sc2c1 | class 2 |
| COC(=O)c1c2c(cc3c1CC1(Cc4cc5c(c(C=O)c4C1)CCCC5)C3)CCCC2 (stereo not drawn) | class 2 |
| CS/C(=N\C(=S)N(C)C)N(c1ccccc1)c1nc(=[N+](C)C)ss1 | class 1 |
| CC[C@@]1(N(C)C)C(=O)OCc2c1cc1n(c2=O)Cc2cc3ccccc3nc2-1 | class 2 |
| CC[C@]1(O)CC(OC2CC(N(C)C)C(O)C(C)O2)c2c(cc3c(c2O)C(=O)c2c(O)cccc2C3=O)[C@@H]1C(=O)OC (stereo partly drawn) | class 1 |
| COc1ccc(C2CC(=O)c3c(O)cc(O)cc3O2)cc1O (stereo not drawn) | class 2 |
| CC(C)(C)c1cc(CC2C(=O)c3ccccc3C2=O)cc(C(C)(C)C)c1O | class 1 |
| CCOC(=O)c1ccc2[nH]c(-c3ccc(S(=O)(=O)F)cc3)cc(=O)c2c1 | class 2 |
| CC(=N\N)/C(C)=N/N=C(C)/C(C)=N/N=C(C)/C(C)=N/N=C(C)/C(C)=N/N | class 2 |
| Cc1ccc(C2=Nc3cc(C)c(Cl)cc3S(=O)(=O)NN2)cc1 | class 2 |
| COc1ccccc1/C=C(\C#N)c1ccccc1 | class 2 |
| CC(C)(C)NNC(=O)/C(=C/c1ccc([N+](=O)[O-])cc1)NC(=O)c1ccccc1 | class 2 |
| COc1ccc(/C=C2\CCC(C)C3=C(c4ccc(OC)c(OC)c4)C(C#N)=C(N)OC32)cc1OC (stereo not drawn) | class 2 |
| O=C(Nc1nnc(-c2ccccc2)o1)C(SC(=S)N1CCCCC1)c1ccccc1 (stereo not drawn) | class 2 |
| CC(=O)[C@@H]1[C@@H](OC(=O)CCC(C)COC2OC(CO)C(O)C(O)C2O)C[C@H]2[C@@H]3CC=C4C[C@@H](OC5OC(CO)C(OC6OC(C)C(O)C(O)C6O)C(O)C5OC5OC(C)C(O)C(O)C5O)CC[C@]4(C)[C@H]3CC[C@]12C (stereo partly drawn) | class 2 |
| Cc1ccc(S(=O)(=O)c2c(N)c3nc4ccccc4n3c3nc4ccccc4nc23)cc1 | class 2 |
| C=C1C(=O)O[C@H]2[C@H]1CC/C(CNC(=O)Cc1c[nH]c3ccccc13)=C\CC[C@@]1(C)O[C@@H]21 | class 0 |
| O=C(O)CC(NC(=O)C(F)(F)F)C(=O)NC(Cc1ccc(O)cc1)C(=O)O (stereo not drawn) (Tfa-Asp-Tyr-OH; configuration not given here) | class 2 |
| CC1(C)N=C(N)N=C(N)N1c1cccc(CCCCc2cccc(S(=O)(=O)F)c2)c1 | class 1 |
| O=c1cc(NCCCCCO)[nH]c(=O)[nH]1 | class 2 |
| Clc1ncnc(Cl)c1Cl | class 2 |
| C[C@@H]1COCCN1c1cc(C2([S@](C)(=N)=O)CC2)nc(-c2ccnc3[nH]ccc23)n1 | class 2 |
| FC(F)(F)Oc1cccc(-c2cnc3ccc(-c4ccncc4)nn23)c1 | class 1 |
| Clc1ccc(CSC(Cn2ccnc2)c2ccc(Cl)cc2Cl)cc1 (stereo not drawn) | class 0 |
| CCOC(=O)c1cnn2c1ncc1c(=O)n(NC(N)=O)ccc12 | class 2 |
| N#Cc1ccccc1NC(=O)/C(=N\N)C(C(=O)c1ccncc1)C1OC(=O)c2ccccc21 (stereo not drawn) | class 2 |
| Cc1c(C#N)c2nnn(-c3ccc(Cl)cc3)c(=O)n2c1-c1ccccc1 | class 0 |
| Cc1ccc([N+](=O)[O-])cc1NC(=O)Nc1cccc(F)c1 | class 1 |
| COc1cc(C(=O)/C=C/c2c(C)n([O-])c3ccc(C)cc3[n+]2=O)cc(OC)c1OC | class 1 |
